# peptide exchange yield annotations
tgt: T1, HLA-A*02:01 (human)
T1 construct: MHC class I monomer made peptide-receptive by UV cleavage of a UV-sensitive ligand; also called peptide-receptive MHC molecules
protocol notes: UV-ligand exchange ELISA (anti-β2m), peptide exchange yield grade

The cases that follow already have their peptide exchange yield on record.
{"columns": ["binder", "outcome measure", "reported measurement"],
 "data": [
  ["TVDVATPSV [peptide TVDVATPSV (SEQ ID NO: 91)]", "peptide exchange yield", "50 to 75%"],
  ["RVLPPSALQSV [peptide RVLPPSALQSV (SEQ ID NO: 124)]", "peptide exchange yield", "50 to 75%"],
  ["SVIDHIHLISV [peptide SVIDHIHLISV (SEQ ID NO: 167)]", "peptide exchange yield", "50 to 75%"]
]}

Now examine the next entry.
INPUT: Consider the binder ILLDDNMQIRL [peptide ILLDDNMQIRL (SEQ ID NO: 174)] and give its measured peptide exchange yield.
OUTPUT: ≥ 75%

Entry source: patent US20230212244A1
